Test system: SN12C renal
Assay: NCI-60 one-dose screen, 48 h (100 = growth as untreated, 0 = no growth, -100 = all killed)
Settings: 10 µM unless noted
This is part of a sample that, as a whole, favours compounds with a hit. Of some 83,000 tested, about 20% had one in any assay.
// returns 0.0 unless growth is strictly below 90%, in which case 1.0

Compound: CC(Sc1nc2sc3c(c2c(=O)n1-c1ccc(Cl)cc1)CCCC3)C(=O)Nc1nc(-c2ccc(Br)cc2)cs1 (configuration not stated)
Discrete Label: 0.0

Compound: COc1cccc(-c2nc3occn3c2-c2ccnc(NCCCNS(=O)(=O)c3ccc(C(F)(F)F)cc3)n2)c1
Discrete Label: 1.0

Compound: COc1cc(C=O)ccc1OC1OC(COC(C)=O)C(OC(C)=O)C(OC(C)=O)C1OC(C)=O (configuration not stated)
Discrete Label: 0.0

Compound: CN(C)CCn1c2ccc(Br)cc2c2nc3ccccc3nc21
Discrete Label: 1.0

Turning now to a further record.
Prompt: # check: growth < 90% for `COc1cccc(-c2ccc3c(c2)NC(=O)/C3=C\c2ccc[nH]2)c1`
Response: 1.0

###

System: NCI-H226 lung
Assay: NCI-60 one-dose screen, 48 h (100 = growth as untreated, 0 = no growth, -100 = all killed)
Conditions: 10 µM unless noted
This is part of a sample that, as a whole, favours compounds with a hit. Of some 83,000 tested, about 20% had one in any assay.
Observable: growth (%)
# unit: % | format: bare number

Example cases with answers are listed next.
Molecule: Cn1ccnc1C(=O)/C=C/c1ccc(CC(=O)Nc2ccc(Cl)cc2)cc1
Result Unit: %
growth: 76.7
--
Molecule: O=C1c2c(c3c4cccc(F)c4[nH]c3c3ccc4ccccc4c23)C(=O)N1O
Result Unit: %
growth: 54.1

Prompt: Which growth is reported with NCI-H226 lung for this entry: CCN(CC)CCCC(C)Nc1cc(O)cc2cccnc12 (stereo unspecified) ?
Response: 112

Prompt: Which growth is reported with NCI-H226 lung for this entry: `COc1cc(/C=C\c2cc(/C=C\c3ccc(O)c(OC)c3)n(C(=O)COc3ccccc3)n2)ccc1O` ?
Response: 9.96

###

Test system: IGROV1 ovarian
Experiment: NCI-60 one-dose screen, 48 h
Settings: 10 µM unless noted
Compounds without any hit were thinned out: in the full panel of roughly 83,000, 20% have a hit. Active and inactive are the calls of the source. How the source made its calls: active means growth percent below 10; inactive means the rest.
Mark one answer only. Choices: True for active, False for inactive

A selection of reference data follows.
Compound: CCOC(=O)Oc1c(OC)cc(C(=O)c2ccc(OC)c(O)c2OC)cc1OC
Target Or Test System: IGROV1 ovarian
Discrete Label: False

Compound: Cc1ccc(NC(=O)c2cc(-c3nc4ccccc4s3)c(=O)n(NS(=O)(=O)c3ccc(Cl)cc3)c2N)cc1
Target Or Test System: IGROV1 ovarian
Discrete Label: False

Compound: COc1ccccc1/C(C)=N/NC(=O)CSc1nc2ccccc2c(=O)n1Cc1ccc(S(N)(=O)=O)cc1
Target Or Test System: IGROV1 ovarian
Discrete Label: False

Prompt: Hi, do you know how `O=C(Cn1c[n+](CC(=O)c2ccc(-c3ccccc3)cc2)c2ccccc21)Nc1cccc2cccnc12` came out in this test?
Response: True

Prompt: Hi, do you know how `CCCOC(=O)N[C@H]1CCc2cc(OC)c(OC)c(OC)c2-c2ccc(SC)c(=O)cc21` came out in this test?
Response: False

Prompt: Hi, do you know how Cc1ccc(C(=O)/C(=C\c2ccc([N+](=O)[O-])cc2)S(=O)Cc2ccc(Cl)cc2)cc1 (centres undefined) came out in this test?
Response: True

Prompt: Hi, do you know how `C#Cc1cccc(NC(=O)Nc2cccc(NC(=O)CCl)c2)c1` came out in this test?
Response: True

Prompt: Hi, do you know how `C=C1C(=O)O[C@H]2[C@H]1CC/C(CNS(=O)(=O)c1cccc3ccccc13)=C\CC[C@@]1(C)O[C@@H]21` came out in this test?
Response: False

Prompt: Hi, do you know how `Cc1ccc(S(=O)(=O)NNC(=O)/C(=C\c2ccc(Cl)cc2)c2nc3ccccc3s2)cc1` came out in this test?
Response: False

Prompt: Hi, do you know how `C#CCNC(=O)[C@]1(C)CC[C@]2(C)CC[C@@H]3C(=CC[C@H]4[C@@]3(C)CC[C@H]3C(C)(C)C(=O)CC[C@]43C)[C@@H]2C1` came out in this test?
Response: False

Prompt: Hi, do you know how `COc1cc(-c2cc(-c3ccc(N(C)C)cc3)nc(N3CCOCC3)c2C#N)cc(OC)c1OC` came out in this test?
Response: False

Prompt: Hi, do you know how `COc1ccc(C(=O)c2nc3ccccc3n2CC(=O)c2ccc(F)cc2)cc1` came out in this test?
Response: False

Prompt: Hi, do you know how `O=S(=O)(NCCNc1nccc(-c2c(-c3cccc(O)c3)nc3occn23)n1)c1cccc(F)c1` came out in this test?
Response: False

Prompt: Hi, do you know how `COc1cc2oc(-c3cccc(C(=O)Nc4ccccc4)c3)cc(=O)c2c(O)c1OC` came out in this test?
Response: False

Prompt: Hi, do you know how `COc1ccc(C(=O)c2nc3ccccc3n2CC(=O)c2ccc(Cl)cc2)cc1` came out in this test?
Response: False

###

Test system: HCC-2998 colon
Test: NCI-60 one-dose screen, 48 h (100 = growth as untreated, 0 = no growth, -100 = all killed)
Details: 10 µM unless noted
This is part of a sample that, as a whole, favours compounds with a hit. Of some 83,000 tested, about 20% had one in any assay.
Observable: growth (%)
# unit: % | format: bare number

Molecule: O=C(Cc1ccccc1)NNc1nc(Cl)nc(N2CCN(C(c3ccccc3)c3ccccc3)CC2)n1
growth (%): 73.6
--
Molecule: N#Cc1c(-c2ccccc2)nc2c(c(-c3ccccc3)nn2-c2ccccc2)c1-c1ccc(O)cc1
growth (%): 72
--
Molecule: CC(C)c1ccc(Nc2ccc3c(OCCCN4CCN(C)CC4)cccc3n2)cc1
growth (%): 64.7
--
Molecule: CCOc1cccc(-c2nc(N)nc(Nc3ccccc3SSc3ccccc3Nc3nc(N)nc(-c4cccc(OCC)c4)n3)n2)c1
growth (%): 97.8

Prompt: Dear colleague, I am looking for the recorded growth of the following molecule: `COc1ccc(/C=C/c2nc(Nc3ccc(S(=O)(=O)Nc4nc(C)cc(C)n4)cc3)c3ccccc3n2)cc1`
Response: 74.9

Prompt: Dear colleague, I am looking for the recorded growth of the following molecule: CC1(C)CC(O)CCCCCCOc2c(CN)cccc2NC(=O)c2nc(cnc2N)-c2ccc(cc2)S1(=O)=O (stereo not drawn)
Response: 28.6

Prompt: Dear colleague, I am looking for the recorded growth of the following molecule: O=C(c1ccccc1)N1N=C(c2ccc(-n3ccc(C(F)(F)F)n3)c(F)c2)CC1c1ccc[nH]1 (stereo not drawn)
Response: 112

Prompt: Dear colleague, I am looking for the recorded growth of the following molecule: `COc1cc2oc(-c3cccc(C(=O)Nc4ccc5c(c4)OCO5)c3)cc(=O)c2c(O)c1OC`
Response: 105

Prompt: Dear colleague, I am looking for the recorded growth of the following molecule: O=C1OC(Cc2ccccc2)C1c1ccccc1 (stereo not drawn)
Response: 99.5

Prompt: Dear colleague, I am looking for the recorded growth of the following molecule: `O=S(=O)(NCCNc1nccc(-c2c(-c3cccc(F)c3)nc3sccn23)n1)c1ccccc1`
Response: 66.4

Prompt: Dear colleague, I am looking for the recorded growth of the following molecule: `Cn1ccnc1C(=O)/C=C/c1ccc(CC(=O)NC2CCCCC2)cc1`
Response: 100

Prompt: Dear colleague, I am looking for the recorded growth of the following molecule: `CCCOc1ccc(/C=N/Nc2cc(C)nc3ccc(Cl)cc23)cc1`
Response: -39.9

Prompt: Dear colleague, I am looking for the recorded growth of the following molecule: COc1ccc2c(c1)C(=O)CC(c1ccccc1OC)O2 (stereo not drawn)
Response: 105

Prompt: Dear colleague, I am looking for the recorded growth of the following molecule: `CC(=O)OC[C@]12CC[C@@H](C(=O)CBr)[C@@H]1[C@H]1CC[C@@H]3[C@@]4(C)CC[C@H](OC(C)=O)C(C)(C)[C@@H]4CC[C@@]3(C)[C@]1(C)CC2`
Response: 111

###

System: BT-549 breast
Experiment: NCI-60 one-dose screen, 48 h (100 = growth as untreated, 0 = no growth, -100 = all killed)
Conditions: 10 µM unless noted
Protocol: Growth inhibition of the BT-549 human tumor cell line is measured as a screen for anti-cancer activity. Cells are grown in 96 well plates and exposed to the test compound for 48 hours. Compounds are tested at a single concentration, which is 10^-5 M for most compounds. The reported endpoint is percent growth (GI% or GIPRCNT), where numbers from 0 - 100% represent growth inhibition, and numbers from -100% - 0 represent cell death. For example, a value of 40 represents 60% growth inhibition. […]
This is part of a sample that, as a whole, favours compounds with a hit. Of some 83,000 tested, about 20% had one in any assay.
// class assignment uses growth with these ranges: range A = under 40%, range B = from 40% up to 90%, range C = 90% and over

A selection of reference data follows.
Molecule: COc1cc(C=O)ccc1OC1OC(COC(C)=O)C(OC(C)=O)C(OC(C)=O)C1OC(C)=O (stereo not drawn)
Discrete Label: range C
//
Molecule: CN1CCN(C(=O)[C@]23CCC(C)(C)C[C@H]2C2=CC[C@@H]4[C@@]5(C)C/C(=C/c6ccncc6)C(=O)C(C)(C)[C@@H]5CC[C@@]4(C)[C@]2(C)CC3)CC1
Discrete Label: range B

Turning now to a further record.
Prompt: Which class holds COc1cc(C2C3CC4CCCC[C@H]4N3[C@@]3(C(=O)Nc4cc(Cl)ccc43)C2C(=O)c2nc3ccccc3[nH]2)cc(OC)c1OC (stereo partly drawn) ?
Response: range B

Source of measurements: PubChem BioAssay (NCI)
